- Experimental parameters: in 2-butanone, 290.65 K
Quantity: solubility (mole fraction)

Report solubility (mole fraction), nothing else, for this compound: Cc1ccc(N)c([N+](=O)[O-])c1 0.162

* * *

- Experimental parameters: in isopropanol, 293.15 K
Quantity: solubility (mole fraction)
Answers are plain numbers.

Report solubility (mole fraction), nothing else, for this molecule: Cc1ccc(N)c([N+](=O)[O-])c1 0.0176

* * *

- Experimental parameters: in methanol, 300.65 K
Quantity: solubility (mole fraction)
Numbers only.

Report solubility (mole fraction), nothing else, for this molecule: Cc1ccc(N)c([N+](=O)[O-])c1 0.0182

* * *

- Experimental parameters: in n-propanol, 313.15 K
Quantity: solubility (mole fraction)
Numbers only.

Report solubility (mole fraction), nothing else, for this compound: Cc1ccc(N)c([N+](=O)[O-])c1 0.0352
